target: monoclonal antibody mAB 198; test: peptide microarray, fluorescence, linear peptide
Response field label: string, one of yes (relative signal [%] strictly below 10%) or no.

[
  {
    "binder": "LRWNPADYGGF",
    "class": "no"
  },
  {
    "binder": "NPADYRG [NPADYRG, linear mimotope]",
    "class": "no"
  },
  {
    "binder": "IDVRLRFNPAD",
    "class": "yes"
  },
  {
    "binder": "GGGSLRYNP",
    "class": "yes"
  },
  {
    "binder": "LRRNPADYG",
    "class": "no"
  },
  {
    "binder": "SLRWNPADYHG",
    "class": "no"
  },
  {
    "binder": "RPNPADYGG",
    "class": "yes"
  },
  {
    "binder": "DVRLRWNPSDY",
    "class": "yes"
  },
  {
    "binder": "RWNPADYGH",
    "class": "yes"
  },
  {
    "binder": "RFNPADY [RFNPADY, linear mimotope]",
    "class": "no"
  },
  {
    "binder": "LRVNPADYG",
    "class": "no"
  },
  {
    "binder": "NPADYGR [NPADYGR, linear mimotope]",
    "class": "no"
  },
  {
    "binder": "WNPDDYR [WNPDDYR, linear mimotope]",
    "class": "no"
  },
  {
    "binder": "NPADYGY [NPADYGY, linear mimotope]",
    "class": "no"
  }
]

Attribution: patent US20230381328A1
